- Test system: tetA promoter (PtetA)-lacZ reporter in E. coli KM3
- Format: cell-based
- condition.set: Table 10; no inducer; 48 hours at 30° C.
measured.quantity: relative β-galactosidase activity, No inducer

Query string: // lookup relative β-galactosidase activity, No inducer for L1-44: library L1 hit, sulfonylurea-responsive TetR(B) variant, SEQ ID NO: 13 (protein, Sulfonylurea responsive repressor L1-44) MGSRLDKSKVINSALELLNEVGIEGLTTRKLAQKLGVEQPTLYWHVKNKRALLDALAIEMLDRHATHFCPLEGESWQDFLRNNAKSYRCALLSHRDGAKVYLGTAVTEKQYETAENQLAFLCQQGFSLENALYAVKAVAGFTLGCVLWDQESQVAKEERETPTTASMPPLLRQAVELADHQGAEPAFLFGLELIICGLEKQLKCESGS
Result string: 0.6
